- system_name: FAD-linked sulfhydryl oxidase ALR (Homo sapiens, UniProt P55789)
- Sequence (P55789 whole entry): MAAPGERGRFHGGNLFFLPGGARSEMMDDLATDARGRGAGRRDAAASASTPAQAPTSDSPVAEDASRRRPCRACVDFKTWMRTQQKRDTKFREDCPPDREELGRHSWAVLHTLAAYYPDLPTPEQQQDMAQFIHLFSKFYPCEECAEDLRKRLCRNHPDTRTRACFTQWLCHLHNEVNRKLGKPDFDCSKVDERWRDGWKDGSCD
- experiment_description: ALR-catalysed DTT oxidation blockers – biochemical, H2O2 detection, luminescence, cherry-pick, dose response (AID 493248)
Calls of active or inactive are those of the source.
The entries below come with measured AC50 values attached.

Reference set (6 entries):
[
  {
    "molecule": "COc1cc(/C=N\\Nc2nc3ccccc3[nH]2)cc(OC)c1OC",
    "AC50": "997 nM (active)"
  },
  {
    "molecule": "CN(C)c1ccc(-c2nnc(S)n2-c2ccccc2)cc1",
    "AC50": "64600 nM (active)"
  },
  {
    "molecule": "CN(C)c1ccc(CNS(=O)(=O)c2ccc3c(c2)NC(=O)CS3)cc1",
    "AC50": "7370 nM (active)"
  },
  {
    "molecule": "O=C(NNc1ccc(O)cc1)c1ccc(Br)cc1",
    "AC50": "96 nM (active)"
  },
  {
    "molecule": "CC(C)C(=O)Nc1ccc2c(c1)nc1n2CCSC1",
    "AC50": "245 nM (active)"
  },
  {
    "molecule": "COc1cc(C(=S)N2CCCC2)ccc1O",
    "AC50": "15100 nM (active)"
  }
]

Data point: "O=Cc1c(N2CCN(c3ccccc3)CC2)nc2ccccn2c1=O" ; AC50 = 3720 nM (active)

Data point: "Cc1cc(C)n(CCc2nc(-c3ccco3)cs2)n1" ; AC50 = 4560 nM (active)

Data point: "COc1cc(SC)ccc1C(=O)N1CCN(c2ccc(O)cc2)CC1" ; AC50 = 680 nM (active)

Data point: "COc1ccc(NCc2ccc(OC)c(Cn3ccnc3)c2)c(OC)c1" ; AC50 = 1760 nM (active)

Data point: Cc1cc(C(=O)N2CCCC(Nc3ccccc3)C2)c2ccc(F)cc2n1 (stereo not drawn) ; AC50 = 2240 nM (active)

Data point: "O=C(O)c1ccccc1C(=O)Nc1ccc(Nc2ccc([N+](=O)[O-])cc2[N+](=O)[O-])cc1" ; AC50 = 3880 nM (active)

Data point: "CNc1nnc(-c2cccc(N(C)C)c2)s1" ; AC50 = 46 nM (active)

###

- system_name: Ubiquitin-conjugating enzyme E2 N (Homo sapiens, UniProt P61088);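 also: Dose-response confirmation in a TR-FRET assay detecting UBC13-driven polyubiquitin chain formation, inhibition measured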
- Sequence (P61088 whole entry): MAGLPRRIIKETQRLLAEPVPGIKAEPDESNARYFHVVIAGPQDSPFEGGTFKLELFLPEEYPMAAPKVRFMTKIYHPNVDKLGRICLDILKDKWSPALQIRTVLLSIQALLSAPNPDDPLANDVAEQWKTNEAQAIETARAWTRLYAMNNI
- Type: functional
The source made the active and inactive calls.
Outcome field: choose from active, inactive

Use the examples below as a reference point.
[
  {
    "mol": "N=C(N)N/N=C/c1ccc(OCc2ccccc2)cc1",
    "group": "inactive"
  },
  {
    "mol": "Cc1ccc(-c2noc(CCC(=O)NCC3CCN(Cc4cccc(C)c4)CC3)n2)cc1",
    "group": "inactive"
  },
  {
    "mol": "Cc1c(NC(=O)CCCN2C(=O)c3cccc4cccc(c34)C2=O)c(=O)n(-c2ccccc2)n1C",
    "group": "active"
  },
  {
    "mol": "COC(=O)C1=C(C)N(Cc2ccccc2)C(NCc2ccc(OC)cc2)=N[C@H]1c1cccc(F)c1",
    "group": "inactive"
  }
]

Short answer needed: outcome of this test for "CCN(CC(=O)NCc1cccs1)C(=O)c1cccc(S(=O)(=O)Nc2ccccc2OC)c1" ?
active

###

Cytochrome P450 1A2 (Homo sapiens) data, read-out AC50;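 also: PubChem cytochrome P450 panel assay, CYP1A2 panel member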
Sequence (P05177 whole entry): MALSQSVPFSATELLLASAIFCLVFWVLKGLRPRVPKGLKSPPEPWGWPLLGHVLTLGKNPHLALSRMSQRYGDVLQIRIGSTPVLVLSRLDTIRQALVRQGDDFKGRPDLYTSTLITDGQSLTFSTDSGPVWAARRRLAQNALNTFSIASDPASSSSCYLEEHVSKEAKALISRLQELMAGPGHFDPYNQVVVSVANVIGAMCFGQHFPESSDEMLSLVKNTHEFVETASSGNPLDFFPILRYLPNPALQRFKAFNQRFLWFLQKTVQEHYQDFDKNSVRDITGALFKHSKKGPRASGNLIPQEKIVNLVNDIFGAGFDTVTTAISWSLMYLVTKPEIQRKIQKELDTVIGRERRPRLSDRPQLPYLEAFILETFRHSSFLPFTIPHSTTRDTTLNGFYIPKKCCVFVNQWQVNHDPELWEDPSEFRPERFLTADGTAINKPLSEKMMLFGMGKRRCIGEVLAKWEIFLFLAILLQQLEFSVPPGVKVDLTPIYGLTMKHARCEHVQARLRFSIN

Reference set (5 entries):
[
  {
    "compound": "CN1CCN(c2ncc3nc(-c4ccccc4)c(=O)n(CCC#N)c3n2)CC1",
    "AC50": "20 µM (inconclusive)"
  },
  {
    "compound": "Nc1cc(=O)nc(SCC(=O)Nc2cccc3ccccc23)n1CCc1ccccc1",
    "AC50": "17.8 µM (inconclusive)"
  },
  {
    "compound": "CCc1ccc(OCC(=O)NC(=S)Nc2ccc(F)cc2)c(Br)c1",
    "AC50": "3.16 µM (inconclusive)"
  },
  {
    "compound": "CC(C)c1ccc2nc3sc(C(=O)N4CCc5ccccc5C4)c(N)c3cc2c1",
    "AC50": "11.2 µM (inconclusive)"
  },
  {
    "compound": "CCCC(=O)Nc1nnc(SCC(=O)NCc2cccs2)s1",
    "AC50": "10 µM (inconclusive)"
  }
]

Record for O=C(O)Cc1cc(I)c(Oc2ccc(O)c(I)c2)c(I)c1 [TIRATRICOL] under target or system Cytochrome P450 1A2 (Homo sapiens): AC50 reported as 12.6 µM (inconclusive)

Record for "COc1ccc(NC(=O)N2CCC3(CC2)CCN(C(=O)c2ccncc2)CC3)cc1" under target or system Cytochrome P450 1A2 (Homo sapiens): AC50 reported as 25.1 µM (inconclusive)

Record for "CCOC(=O)NC(NC(=O)OCC)C(=O)c1ccc(F)cc1" under target or system Cytochrome P450 1A2 (Homo sapiens): AC50 reported as 10 µM (inconclusive)

Record for "O=S(=O)(Nc1ccc2c(c1)OCCO2)c1cccc2cccnc12" under target or system Cytochrome P450 1A2 (Homo sapiens): AC50 reported as 5.01 µM (inconclusive)

Record for "C[C@](N)(CCP(=O)(O)O)C(=O)O" under target or system Cytochrome P450 1A2 (Homo sapiens): AC50 reported as 39.8 µM (inconclusive)

Record for "Cc1ccccc1OCC(=O)NC(=S)Nc1ccc(Br)c(C)n1" under target or system Cytochrome P450 1A2 (Homo sapiens): AC50 reported as 3.16 µM (inconclusive)

Record for "O=C(CSc1nc2ccccc2c(=O)n1CCCO)NCc1ccccc1" under target or system Cytochrome P450 1A2 (Homo sapiens): AC50 reported as 31.6 µM (inconclusive)

Record for "CN(C)c1ncc2nc(-c3ccc(F)cc3)c(=O)n(CCc3ccccc3)c2n1" under target or system Cytochrome P450 1A2 (Homo sapiens): AC50 reported as 2.51 µM (inconclusive)

Record for COc1ccc([N+](=O)[O-])cc1N=C(S)NC(NC(=O)Cc1ccc(OC)c(OC)c1)C(Cl)(Cl)Cl (configuration not stated) under target or system Cytochrome P450 1A2 (Homo sapiens): AC50 reported as 17.8 µM (inconclusive)

Record for COc1ccc(CCN2C(=O)C(O)=C(C(=O)c3ccco3)C2c2cccs2)cc1OC (configuration not stated) under target or system Cytochrome P450 1A2 (Homo sapiens): AC50 reported as 31.6 µM (inconclusive)

Record for "CC(C)(C)c1ccc(OCC(=O)NNC(=O)Cc2cccs2)cc1" under target or system Cytochrome P450 1A2 (Homo sapiens): AC50 reported as 28.2 µM (inconclusive)

FYI, the data here is from ChEMBL document CHEMBL1201862.
